Could you please report measured melting point for the items listed next?

COc1cc(C2C(C(=O)O)c3ccccc3C(=O)N2C)cc(OC)c1OC (configuration not stated) ... 194 to 195 °C
NCCCCCCCC1OCC2(CO1)COC(CCCCCCCN)OC2 (configuration not stated) ... 74 to 75 °C
O=c1[nH]c2cc(Br)sc2[nH]c1=O ... > 300 °C

Dear colleague, could you please provide melting point for the compounds listed below?
1. O=C(NCCCCCCO)Oc1ccc(Oc2ccccc2)cc1
2. COC12CC(C)(C)C(OC(C)=O)C(C=C1C)O2 (configuration not stated)

72 to 75 °C
54 to 55 °C

Dear colleague, could you please provide melting point for the compounds listed below?
1. CCC(CCC1(C(N)=O)c2ccccc2-c2ccccc21)NC(C)C (configuration not stated)
2. COC(=O)NCCc1cccc(-c2ccnc3c(C#N)cnn23)c1
3. c1ccc(-c2cc3nc(N4CCOCC4)c4ccccc4c3nn2)cc1
4. Cc1cc(C)c(C(=O)P(=S)(C(=O)c2c(C)cc(C)cc2C)c2ccccc2)c(C)c1
5. CNN1c2c(cc(Oc3ccc(F)cc3F)c(=O)n2NC)C=NC1NC1CCOCC1 (configuration not stated)
6. COC(=O)c1ccc(C(=O)c2cc3c(cc2C)OC2(C)C4CCC(C)(C4)C32C)cc1 (configuration not stated)
7. CCC(=O)NCCC1c2cc(OC)ccc2-c2ccc3c(c21)OCO3 (configuration not stated)

1. 161 to 163 °C
2. 162 to 164 °C
3. 214 to 216 °C
4. 123 °C
5. 80.5 to 89.9 °C
6. 140 to 142 °C
7. 145 to 147 °C

Dear colleague, could you please provide melting point for the compounds listed below?
1. CS(=O)(=O)c1ccc(-c2cnn(-c3cccc(Cl)c3)c(=O)c2-c2ccc(F)cc2)cc1
2. O=C(O)c1cnn(-c2nc(-c3cccc(C(F)(F)F)c3)cs2)c1
3. CCCCc1nn(-c2ccc(C(F)(F)F)cn2)cc1CCCOc1nn(CC)cc1CC(=O)O
4. CCCOC(=O)c1cn(C2CC2)c2nc(N3CCC(N)C3)c(F)cc2c1=O (configuration not stated)
5. Cc1c(F)c(N2CCC(N)C2)c(Cl)c2c1c(=O)c(C(=O)O)cn2C1CC1 (configuration not stated)

["232 to 235 °C", "229 to 230 °C", "109 to 110 °C", "125 to 126 °C", "124 to 126 °C"]

Each recorded value in this set is attributed to a melting point compilation (Tetko et al.; mined from patent text by program, amines drawn as free bases though some values may be those of a salt).
